Target: recombinant human Cathepsin K (Homo sapiens (Human), UniProt P43235)
Sequence (P43235 115-329): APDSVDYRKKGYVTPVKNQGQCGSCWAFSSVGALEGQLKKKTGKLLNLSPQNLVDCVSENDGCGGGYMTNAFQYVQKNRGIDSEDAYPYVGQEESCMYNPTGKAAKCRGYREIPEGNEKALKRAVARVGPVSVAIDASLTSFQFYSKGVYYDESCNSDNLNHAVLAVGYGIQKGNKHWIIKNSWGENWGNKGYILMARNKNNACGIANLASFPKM
Assay: Inhibition of human Cathepsin K
Details: substrate Z-Gly-Pro-Arg-AMC
property label: pIC50
# pIC50 is unitless: minus log10 of the molar concentration; print number only

- CC(C)C(O)Cc1cn(-c2ccc(C[C@@H](C#N)NC(=O)[C@H]3N[C@@H]4CC[C@H]3C4)c(F)c2)nn1 (stereo partly shown): 5.35

The compound listed as N#C[C@H](Cc1ccc(-c2ccc(C(=O)N3CCN4CCOCC4C3)o2)cc1F)NC(=O)[C@H]1N[C@@H]2CC[C@H]1C2 (stereo partly shown) has a reported pIC50 of 5.03

The compound listed as CS(C)(=O)=Nc1cccc(-c2ccc(C[C@@H](C#N)NC(=O)[C@H]3N[C@@H]4CC[C@H]3C4)c(F)c2)c1 has a reported pIC50 of 5.43

The compound listed as N#CC(Cc1ccc(-c2cccc(C(N)=O)c2)cc1F)NC(=O)[C@H]1N[C@@H]2CC[C@H]1C2 (stereo partly shown) has a reported pIC50 of 5.39

The compound listed as N#CC(Cc1ccc(-c2ccc3c(c2)NC(=O)C3)cc1F)NC(=O)[C@H]1N[C@@H]2CC[C@H]1C2 (stereo partly shown) has a reported pIC50 of 5.49

The compound listed as CN(C)C1CCCN(c2ccc(C[C@@H](C#N)NC(=O)[C@H]3N[C@@H]4CC[C@H]3C4)c(F)c2)C1 (stereo partly shown) has a reported pIC50 of 5.21

The compound listed as CN1CCN(C(=O)c2ccc(-c3ccc(C[C@@H](C#N)NC(=O)[C@H]4N[C@@H]5CC[C@H]4C5)c(F)c3)cc2)CC1 has a reported pIC50 of 5.77

* * *

Molecular target: recombinant human Cathepsin K (Homo sapiens (Human), UniProt P43235)
Experiment: Inhibition of human Cathepsin K
Settings: substrate Z-Gly-Pro-Arg-AMC
property label: pIC50
# pIC50 is unitless: minus log10 of the molar concentration; print number only

* CCS(=O)(=O)c1ccc(-c2ccc(C[C@@H](C#N)NC(=O)[C@H]3N[C@H]4C[C@@H]3[C@@H]3C[C@@H]34)c(F)c2)cc1 | 5.32
* CN(C)CCN1C(=O)Cc2ccc(-c3ccc(C[C@@H](C#N)NC(=O)[C@H]4N[C@@H]5CC[C@H]4C5)c(F)c3)cc21 | 5.92

// next entry
The compound listed as CCn1nccc1-c1ccc(C[C@@H](C#N)NC(=O)[C@H]2N[C@@H]3CC[C@H]2C3)c(F)c1 has a reported pIC50 of 5.01

* * *

Target: recombinant human DPPI (Cathepsin C) (Homo sapiens (Human))
Sequence (P53634 231-394): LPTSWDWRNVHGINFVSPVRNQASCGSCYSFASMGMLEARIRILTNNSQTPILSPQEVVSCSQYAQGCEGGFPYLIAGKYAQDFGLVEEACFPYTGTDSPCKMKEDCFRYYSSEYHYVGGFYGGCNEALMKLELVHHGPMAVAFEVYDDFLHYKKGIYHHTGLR
Sequence (P53634 395-463): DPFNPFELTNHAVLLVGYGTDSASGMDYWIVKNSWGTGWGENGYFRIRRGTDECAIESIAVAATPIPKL
Sequence (P53634 25-134): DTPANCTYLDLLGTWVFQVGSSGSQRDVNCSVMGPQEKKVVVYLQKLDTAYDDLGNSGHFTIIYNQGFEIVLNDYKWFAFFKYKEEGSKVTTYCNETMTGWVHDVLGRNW
Assay: Inhibition of human DPPI (Cathepsin C)
Settings: substrate Gly-Arg-AMC
pIC50: −log10 of the molar value.
Would you please tag the item rule met when its pIC50 is 8 or above, and rule not met when it is below?

Field: example entries. Status: answers known.
- N#C[C@H](Cc1ccc(-c2ccc(C(F)(F)F)s2)cc1F)NC(=O)[C@H]1N[C@@H]2CC[C@H]1C2 [Example 33]: rule met
- N#C[C@H](Cc1ccc(-c2ccc3c(c2)COC3=O)cc1F)NC(=O)[C@H]1N[C@@H]2CC[C@H]1C2 [Example 3]: rule met
- CCOc1cc(-c2ccc(C[C@@H](C#N)NC(=O)[C@H]3N[C@@H]4CC[C@H]3C4)c(F)c2)cc(S(C)(=O)=O)c1 [Example 275]: rule not met

(Q) Tell me whether pIC50 is at least 8 here: CN(C)C(=O)c1cc(-c2ccc(C[C@@H](C#N)NC(=O)[C@H]3N[C@@H]4CC[C@H]3C4)c(F)c2)cs1 [Example 170]
(A) rule met
